Source of measurements: patent US9434711B2

Target: canine TRPM8 (Canis lupus familiaris, UniProt Q1A7N1)
Sequence (Q1A7N1 1-1104): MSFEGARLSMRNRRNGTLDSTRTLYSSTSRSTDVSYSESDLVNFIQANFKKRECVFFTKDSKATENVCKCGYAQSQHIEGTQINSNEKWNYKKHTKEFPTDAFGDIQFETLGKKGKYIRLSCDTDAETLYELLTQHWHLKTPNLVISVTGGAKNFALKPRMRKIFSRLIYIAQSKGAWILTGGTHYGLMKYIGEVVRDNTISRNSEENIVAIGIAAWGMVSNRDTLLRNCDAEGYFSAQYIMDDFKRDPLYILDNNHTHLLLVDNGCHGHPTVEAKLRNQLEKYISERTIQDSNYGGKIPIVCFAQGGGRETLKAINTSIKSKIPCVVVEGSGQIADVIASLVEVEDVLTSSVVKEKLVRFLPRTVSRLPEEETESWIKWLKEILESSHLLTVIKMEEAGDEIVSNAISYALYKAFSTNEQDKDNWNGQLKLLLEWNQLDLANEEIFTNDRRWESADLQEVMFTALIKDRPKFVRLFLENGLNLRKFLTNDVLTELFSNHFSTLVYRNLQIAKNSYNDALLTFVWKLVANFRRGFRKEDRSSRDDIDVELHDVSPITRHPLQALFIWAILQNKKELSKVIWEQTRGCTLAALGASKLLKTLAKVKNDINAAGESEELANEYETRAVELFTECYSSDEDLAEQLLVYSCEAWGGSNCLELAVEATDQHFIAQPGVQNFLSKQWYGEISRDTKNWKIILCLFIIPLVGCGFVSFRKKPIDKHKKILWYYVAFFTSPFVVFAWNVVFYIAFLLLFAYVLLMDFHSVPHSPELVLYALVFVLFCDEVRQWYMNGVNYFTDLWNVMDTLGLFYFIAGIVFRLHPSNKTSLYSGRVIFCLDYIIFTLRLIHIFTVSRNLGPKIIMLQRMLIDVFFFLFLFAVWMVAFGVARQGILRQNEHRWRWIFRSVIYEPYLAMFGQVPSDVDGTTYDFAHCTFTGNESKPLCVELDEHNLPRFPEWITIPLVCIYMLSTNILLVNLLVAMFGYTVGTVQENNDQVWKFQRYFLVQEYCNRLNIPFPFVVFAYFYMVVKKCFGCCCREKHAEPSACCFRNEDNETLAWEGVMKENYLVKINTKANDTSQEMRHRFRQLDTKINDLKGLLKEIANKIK
Experiment: In Vitro Canine TRPM8 Functional Assay (Ca2+ fluorescence, icilin activation)
Type: cell-based
Settings: HEK293 cells stably expressing canine TRPM8; icilin activation; eight-point dose-response; read-out: IC50
pIC50: −log10 of the molar value.
readout name: pIC50

Worked examples, 3 compounds total:
compound | pIC50
O=c1[nH]c(-c2ccc(S(=O)(=O)N(CCC3CC3)c3sc4ccccc4c3Br)cc2)no1 [Compound 626] | 8.13
CCS(=O)(=O)N(CCOC(C)(C)C)c1sc2ccccc2c1Br [Compound 264] | 7.47
COC(=O)CS(=O)(=O)N(Cc1ccc(F)c(C(F)(F)F)c1)c1sc2ccccc2c1C [Compound 791] | 7.64

A: COC(=O)c1ccc(S(=O)(=O)N(Cc2ccc(F)c(C(F)(F)F)c2)c2sc3ccccc3c2C)o1 [Compound 327]
B: COC(=O)CCS(=O)(=O)N(CCCC(F)(F)F)c1sc2ccccc2c1C [Compound 602]
C: Cc1c(N(Cc2c(F)c(F)c(F)c(F)c2F)S(=O)(=O)c2ccc(C(=O)O)cc2)sc2ccccc12 [Compound 493]
D: CC(=O)c1c(N(Cc2ccccc2)S(=O)(=O)c2ccc(Br)cc2)sc2ccccc12 [Compound 732]
E: Cc1c(N(Cc2ccc(F)c(C(F)(F)F)c2)S(=O)(=O)c2ccc(C(C)(C)O)cc2)sc2ccccc12 [Compound 374]
Put the items in order so that reported pIC50 rises from first to last. Field: ranking. Enter the labels in the order requested.
A, B, D, E, C
(A: 7.43, B: 7.66, D: 7.88, E: 8.40, C: 9.10)

* * *

Target: canine TRPM8 (Canis lupus familiaris)
Assay: In Vitro Canine TRPM8 Functional Assay (Ca2+ fluorescence, icilin activation)
Type: cell-based
Conditions: HEK293 cells stably expressing canine TRPM8; icilin activation; eight-point dose-response; read-out: IC50
pIC50: −log10 of the molar value.
readout name: pIC50

Worked examples, 3 compounds total:
smiles | test result
CS(=O)(=O)Nc1ccc(S(=O)(=O)N(CCC2CC2)c2sc3ccccc3c2Br)cc1 | 8.30
Cc1c(N(Cc2ccc(F)c(F)c2)S(=O)(=O)c2ccc(O)cc2)sc2ccccc12 | 8.60
O=S(=O)(c1cccnc1)N(Cc1ccc(F)c(C(F)(F)F)c1)c1sc2ccccc2c1Cl | 7.94

1: CS(=O)(=O)N(Cc1ccc(F)c(C(F)(F)F)c1)c1sc2ccccc2c1CO
2: CCCCN(c1sc2ccccc2c1C(C)(C)O)S(=O)(=O)c1ccc(C(C)=O)cc1
3: O=S(=O)(c1ccccc1)N(Cc1ccc(F)c(F)c1)c1sc2ccccc2c1Br
4: O=S(=O)(c1ccccc1)N(c1cc2ccccc2s1)C1CCCCC1
Put the items in order so that reported pIC50 rises from first to last. Field: ranking. Enter the labels in the order requested.
4, 2, 1, 3

* * *

Molecular target: canine TRPM8 (Canis lupus familiaris, UniProt Q1A7N1)
Experiment: In Vitro Canine TRPM8 Functional Assay (Ca2+ fluorescence, icilin activation)
Assay type: cell-based
Conditions: compound at 0.2 μM; canine TRPM8, icilin activation
readout name: % Inh @ 0.2 (μM) (%)

Worked examples, 8 compounds total:
compound | value units | % Inh @ 0.2 (μM)
CNC(=O)c1c(N(Cc2ccc(F)c(C(F)(F)F)c2)S(=O)(=O)c2ccccc2)sc2ccccc12 | % | 102
Cc1c(N(Cc2ccc(F)c(C(F)(F)F)c2)S(=O)(=O)c2ccc(C3=NOS(=O)N3)cc2)sc2ccccc12 (stereo not shown) | % | 104.46
Cc1c(N(Cc2ccc(S(=O)(=O)C(F)(F)F)cc2)S(=O)(=O)c2ccc(C(=O)O)cc2)sc2ccccc12 | % | 101
CC(C)(O)c1c(N(Cc2ccc(F)c(C(F)(F)F)c2)S(=O)(=O)c2ccc(Br)cc2)sc2ccccc12 | % | 97
CCCCN(c1sc2ccccc2c1Br)S(=O)(=O)c1ccc(C2=NOS(=O)N2)cc1 (stereo not shown) | % | 100
CCCCN(c1cc2ccccc2s1)S(=O)(=O)c1ccc(C2=NOS(=O)N2)cc1 (stereo not shown) | % | 15
CN(C)C(=O)c1c(N(Cc2ccc(F)c(C(F)(F)F)c2)S(=O)(=O)c2ccccc2)sc2ccccc12 | % | 93
CCCCN(c1sc2ccccc2c1Br)S(=O)(=O)c1ccc(C(N)=NO)cc1 | % | 102

a: Cc1c(N(Cc2ccc(F)c(C(F)(F)F)c2)S(=O)(=O)c2ccc3c(c2)CC(N)C3)sc2ccccc12 (stereo not shown)
b: Cc1c(N(Cc2ccc(F)c(C(F)(F)F)c2)S(=O)(=O)c2c(Cl)nc3sccn23)sc2ccccc12
// compare: a vs b , metric % Inh @ 0.2 (μM), want the smaller # answer = label of selected item
a
